Tested on: MOLT-4
Test method notes: NCI tumour cell line growth inhibition, 48 h
Activity calls are given as the source filed them. Cut-off read from the data, not from the text of the source: active = GI50 up to about 1.1 µM and inactive = higher.
Just give me one of these, please: yes = active, no = inactive

Could you please tell me the result logged for CC(=O)Nc1ccc(C2CC(c3ccc([N+](=O)[O-])cc3)=Nc3ccccc3[S+]2[O-])cc1 (stereo not drawn) in this assay?
no

Just curious, what result did "O=C(/C=C/c1cccc(Br)c1)N1CCN(CCOC(c2ccccc2)c2ccccc2)CC1" get here?
no

For this compound, state the assay outcome: O=C1N/C(=N/N=C/C(O)C(O)C(O)C(O)CO)N/C1=C\c1ccco1 (stereo not drawn)
no

Please state the recorded outcome for this compound: "Cc1ncc2c(=O)c3c(oc2n1)c1ccccc1n3Cc1ccccc1"
no

Called result for "CO/C=C/c1cc2c(cc1C(OC)OC)OCO2"
no

Identify the outcome logged in this assay for the compound shown: CC(C)c1cc2c(cc1S(=O)(=O)O)[C@@]1(C)CCC[C@@](C)(C(=O)O)C1CC2 (stereo partly drawn)
no

Each compound tested received a call. Report the one for "O=C(/C=C/c1cc(O)c(O)cc1O)OCCc1ccccc1" .
no

Identify the outcome logged in this assay for the compound shown: CCOP(=O)(OCC)C1CC(C)OC1=O (stereo not drawn)
no

Called result for "CCOC(=O)c1c(-c2[nH]c(C(=O)OCc3ccccc3)c(C)c2C(=O)OCC)[nH]c(C(=O)OCc2ccccc2)c1C"
no

What outcome does the record of this test show for "COc1ccc(OC)c(/C(C)=N/NC(N)=S)c1" ?
no

Please share the test call associated with "N#Cc1c(N2CCCC2)nsc1NCc1ccccc1" .
no

Query: recorded result category for "c1ccc2c(c1)c1ccccc1n2Cn1c2ccccc2c2ccccc21" in this test
no

For this compound, state the assay outcome: Nc1ccc2c(c1)nc1n2C(c2c(F)cccc2F)SC1 (stereo not drawn)
no

Could you check what this test reported for "O=C(NCCCCN(CCCNC(=O)C(F)(F)F)Cc1ccccc1)C(F)(F)F" ?
no

Assay outcome for COC(=O)C1=C(C(=O)OC)c2cc(OC)ccc2C(C(=S)N(C)C)S1 (stereo not drawn) : what was it?
no

Per the records of this test, what outcome belongs to "O=[N+]([O-])c1cc2no[n+]([O-])c2cc1N1CCCCC1" ?
yes

Please let me know the test result on file for "CC1(C)OC(=O)C(C)(C)OC1=O" .
no

Record lookup: outcome of this test for "Cn1nc(S(N)(=O)=O)s/c1=N/S(=O)(=O)c1ccc(N)cc1" ?
no

----------
System: OVCAR-5
Test method notes: NCI tumour cell line growth inhibition, 48 h
Calls of active or inactive are those of the source. Cut-off read from the data, not from the text of the source: active = GI50 up to about 1.1 µM and inactive = higher.
Reported metric: GI50

Please tell me: GI50 of CC(=O)Nc1ccc(C2CC(c3ccc([N+](=O)[O-])cc3)=Nc3ccccc3[S+]2[O-])cc1 (stereo not drawn) , system OVCAR-5?
50.6 µM (inactive)

Give OVCAR-5 GI50 for "Cn1nc(S(N)(=O)=O)s/c1=N/S(=O)(=O)c1ccc(N)cc1"
> 100 µM (inactive)

What value of GI50 on OVCAR-5 does "Cc1ccccc1-n1c(N)c(-c2nc3ccccc3[nH]2)sc1=S" have?
37 µM (inactive)

Provide the documented GI50 with OVCAR-5 as the system for CC1=NN(C(=O)c2ccccc2)C(=O)C1/N=N/c1ccccc1C(=O)O (stereo not drawn)
> 73.1 µM (inactive)

// lookup GI50 | system=OVCAR-5 | key= "O=C(O)CN1CCN2CCCCCCCCN(CC1)CCN(CC(=O)O)CC2"
> 100 µM (inactive)

Hello, I am looking for reported GI50 with OVCAR-5 for "COc1cc(/C=C/c2sc3ccccc3[n+]2C)ccc1N(C)C" . Could you help?
20.3 µM (inactive)

Identify the measured GI50 of "C/C(=N\c1c2ccccc2nc2ccccc12)N(C)C" for OVCAR-5.
20.5 µM (inactive)

What measured GI50 is associated with "CSC1=N/C(=C\c2ccccc2)C(=O)N1CN1CCCCC1" on OVCAR-5?
> 100 µM (inactive)

Field: GI50 (OVCAR-5). Entry: Cc1ccc(S(=O)(=O)N/N=C2\C=CC3(CC2)C(=O)N(I)c2ccccc23)cc1 (stereo not drawn)
> 100 µM (inactive)

Checklist item: GI50 tested on OVCAR-5, entry COC(=O)C(C(=O)C(=O)Nc1cccc(OC)c1)c1cnc2ccccc2n1 (stereo not drawn) , value?
> 100 µM (inactive)

Lab request: please report GI50 under test system OVCAR-5 for "COc1c(OC)c(OC)c2c(=O)cc(-c3ccc(OC(C)C)cc3)oc2c1OC"
18.8 µM (inactive)

Look up GI50 with OVCAR-5 for this compound: N#CC12C(=O)N3C(=NC(c4ccccc4)NC3c3ccccc3)C1(C#N)C(c1ccccc1)NC1=C2CCCC1 (stereo not drawn)
> 100 µM (inactive)

Record "Cc1ncc2c(=O)c3c(oc2n1)c1ccccc1n3Cc1ccccc1" : what is its GI50 with OVCAR-5?
> 100 µM (inactive)

----------
Answer each item with its documented GI50.
System: MDA-MB-231
Test method notes: NCI tumour cell line growth inhibition, 48 h
Activity calls are given as the source filed them. No stated cut-off is given here; in the data, active = GI50 up to about 1.1 µM and inactive = higher.

Which GI50 is reported for this compound? "Cc1ccc(S(=O)(=O)NNC(=O)c2cc(C)ccc2NC(=O)C23CC4CC(CC(C4)C2)C3)cc1"
41.6 µM (inactive)

Returns the measured GI50 for the input compound. Input: CC1(C)CC2(C)CC1CC2NC(=O)CCN1CCOCC1 (centres undefined)
> 100 µM (inactive)

What does the data say about its GI50? Entry: O=[N+]([O-])c1ccc(C2=NOC(c3ccccc3)N2C23CC4CC(CC(C4)C2)C3)cc1 (centres undefined)
31.4 µM (inactive)

// lookup GI50 for "O=C(O)CCSC(=S)Nc1ccc([N+](=O)[O-])cc1"
> 100 µM (inactive)

Report GI50 for "NCCCN1c2ccccc2Sc2ccc(Cl)cc21" please.
3.33 µM (inactive)

What does the record list as GI50 for "N#Cc1ccc(/N=N/N2CCCC2)cc1" ?
> 100 µM (inactive)

Fill in: GI50 of N#CC12C(=O)N3C(=NC(c4ccccc4)NC3c3ccccc3)C1(C#N)C(c1ccccc1)NC1=C2CCCC1 (centres undefined) is ___
> 100 µM (inactive)

If you can, please state the reported GI50 value of O=C1N/C(=N/N=C/C(O)C(O)C(O)C(O)CO)N/C1=C\c1ccco1 (centres undefined) .
> 100 µM (inactive)

Give its GI50 value. Item: COc1cc2c(cc1OC)C1C(O)C(OC)C=C3CC[N+](C)(C2)C31 (centres undefined)
> 100 µM (inactive)

----------
Tested on: A498
Test method notes: NCI tumour cell line growth inhibition, 48 h
Active and inactive are the calls of the source. No stated cut-off is given here; in the data, active = GI50 up to about 1.1 µM and inactive = higher.
Provide the reported GI50 of each item.

Given the entry "Cc1c([N+](=O)[O-])oc2ccc3ccccc3c12" , report its measured GI50.
22.8 µM (inactive)

Item "C=C(Br)CNC(=O)Nc1ccc(Cl)c(Cl)c1" has what recorded GI50?
9.12 µM (inactive)

What GI50 value was documented for this compound, Cc1c(C)c(C)n(C2OC(CO)C(O)C(O)C2O)c(=S)c1C#N (stereo unspecified) ?
> 100 µM (inactive)

Form field: reported GI50 of "CN(C)c1ccccc1CC(c1c[nH]c2ccccc12)c1c[nH]c2ccccc12"
17.1 µM (inactive)

Return reported GI50; argument: "Nc1ccc(S2(c3ccc(N)cc3)C=C(c3ccccc3)C(c3ccccc3)=C2)cc1"
> 29.4 µM (inactive)

# get_value(readout='GI50', item= "Cc1ccc(Nc2ccc(Nc3ccc(C)cc3)c3c2C(=O)c2c(O)ccc(O)c2C3=O)cc1" )
> 100 µM (inactive)

----------
Tested on: SK-MEL-5
Test method notes: NCI tumour cell line growth inhibition, 48 h
The source made the active and inactive calls. No stated cut-off is given here; in the data, active = GI50 up to about 1.1 µM and inactive = higher.
Reported metric: GI50

Quick one: GI50 of "COc1ccc(CCN2CCOCC2)cc1" ?
> 100 µM (inactive)

What value of GI50 has been reported for the following compound? "CC(C)c1cc(C(C)C)c(B(c2ccccc2)c2ccccc2)c(C(C)C)c1Br"
> 100 µM (inactive)

Would you mind telling me what GI50 value was observed for "O=C1C=CC(=O)c2c1ccc1c3ccccc3n(CCCCCCCCn3c4ccccc4c4ccc5c(c43)C(=O)C=CC5=O)c21" ?
> 100 µM (inactive)

Name the reported GI50 value associated with the compound "CN(C)S(=O)(=O)/N=C/c1cccc(/C=N/S(=O)(=O)N(C)C)c1"
55.1 µM (inactive)

Query (compound): "O=C(O)CN1CCN2CCCCCCCCN(CC1)CCN(CC(=O)O)CC2" ; field requested: GI50
> 100 µM (inactive)

Which GI50 value is on record for OCC1OC(n2cnc3c2NC=NC[C@H]3O)CC1O (some centres not stated) ?
483 µM (inactive)

Give its GI50 value. Item: Nc1ccc2c(c1)nc1n2C(c2c(F)cccc2F)SC1 (configuration not stated)
47.8 µM (inactive)

Any idea what GI50 was measured for Cc1c2cc[n+](C)cc2c(COC2OC(CO)C(O)C2O)c2c3ccccc3n(C)c12 (configuration not stated) ?
61.8 µM (inactive)

Would you mind telling me what GI50 value was observed for "Cc1ncc2c(=O)c3c(oc2n1)c1ccccc1n3Cc1ccccc1" ?
> 100 µM (inactive)

Record request: GI50 value, item "CN(C)c1ccccc1CC(c1c[nH]c2ccccc12)c1c[nH]c2ccccc12"
15.3 µM (inactive)

What value of GI50 has been reported for the following compound? O=C(Nc1ccc(Cl)cc1Cl)C(=O)C(C(=O)c1ccncc1)C1OC(=O)c2ccccc21 (configuration not stated)
> 100 µM (inactive)

Consider the compound NNC(=S)N/N=C(\c1nc2ccc(Cl)cc2nc1O)C(O)c1ccc(Cl)cc1Cl (configuration not stated) and give its measured GI50.
> 100 µM (inactive)

Return reported GI50; argument: Nc1nc2c(nnn2C2C=C(CO)C(O)C2O)c(=O)[nH]1 (configuration not stated)
> 100 µM (inactive)

What measured GI50 goes with CC(=O)OCC1OC(c2nc3ccccc3s2)=CC(OC(C)=O)C1OC(C)=O (configuration not stated) ?
> 100 µM (inactive)

If you can, please state the reported GI50 value of O=C1CCC(C(=O)O)C2=C1CCCC2 (configuration not stated) .
> 56.1 µM (inactive)

// returns reported GI50 for input "CC1=NN(C(=O)Cc2ccccc2)C(=O)/C1=C\c1ccc(O)cc1"
> 100 µM (inactive)

What GI50 value was documented for this compound, "CCCN(CCC)CCc1cc(C(C)=O)n(S(=O)(=O)c2ccc(C)cc2)c1" ?
41.4 µM (inactive)

Fill blank: measured GI50 of the compound COC(=O)/C(Cl)=C1/CC1COCc1ccccc1 (configuration not stated) is ____.
24.1 µM (inactive)

// GI50 lookup, key: CC1=N[C@@](C)(C2CC3C=CC2C3=O)COC1=O (some centres not stated)
> 100 µM (inactive)

I would be grateful if you could share the reported GI50 for "COc1ccc2c(C)cc(N/N=C/c3ccc(C)s3)nc2c1" .
3.43 µM (inactive)

What does the record list as GI50 for CCC12CCCC(=O)N1C(CO)C(c1ccccc1)O2 (configuration not stated) ?
> 100 µM (inactive)

May I ask what GI50 has been recorded for "c1ccc(CCCCNCc2cc(CNCCCCc3ccccc3)cc(CNCCCCc3ccccc3)c2)cc1" ?
1.81 µM (inactive)

# GI50 lookup, item "CSc1ncc2c(C#N)c3ccccn3c(=O)c2n1"
> 100 µM (inactive)

Data request, read-out GI50, for "CC1(C)OC(=O)C(C)(C)OC1=O"
> 100 µM (inactive)

Would you kindly share the measured GI50 for "COc1ccc2nc3cc(Cl)ccc3c(NCCCN(Cc3cc(OC)c(OC)c(OC)c3)Cc3cc(OC)c(OC)c(OC)c3)c2c1" ?
1.29 µM (inactive)

Reported GI50, compound O=S(=O)(CC1=NC2C=CC=CC2N=C1)NCc1ccccc1 (configuration not stated) : ____
40 µM (inactive)

Which GI50 reading was recorded for the compound "COc1ccc(/N=C\c2ccc(N(CCC#N)CCC#N)cc2)cc1" ?
40.4 µM (inactive)

For "CCN(CC)CCN(/C(=N/c1ccccc1)N1CCCCC1)c1ccccc1" , what is its reported GI50?
5.08 µM (inactive)

Query: GI50; subject: "COc1cc2nc(-c3cccs3)nc(N3C(c4cc(OC)c(OC)c(OC)c4)=NNC(=O)c4ccccc43)c2cc1OC"
34.9 µM (inactive)

Suppose we examine the compound "O=C(NNCc1ccc(Cl)cc1)Nc1cccc2ccccc12" ; what GI50 value has been reported?
76.2 µM (inactive)

I am curious: what GI50 value has been reported for "N#Cc1ccc(/N=N/N2CCCC2)cc1" ?
86.3 µM (inactive)

Sample "CCN(CC)CCCNc1nnc(C)c2[nH]c3ccccc3c12" — what was its GI50?
14.6 µM (inactive)
